- target_or_test_system: OsSMF1 (Oryza sativa, UniProt Q6ZLB0 1-436)
- Sequence: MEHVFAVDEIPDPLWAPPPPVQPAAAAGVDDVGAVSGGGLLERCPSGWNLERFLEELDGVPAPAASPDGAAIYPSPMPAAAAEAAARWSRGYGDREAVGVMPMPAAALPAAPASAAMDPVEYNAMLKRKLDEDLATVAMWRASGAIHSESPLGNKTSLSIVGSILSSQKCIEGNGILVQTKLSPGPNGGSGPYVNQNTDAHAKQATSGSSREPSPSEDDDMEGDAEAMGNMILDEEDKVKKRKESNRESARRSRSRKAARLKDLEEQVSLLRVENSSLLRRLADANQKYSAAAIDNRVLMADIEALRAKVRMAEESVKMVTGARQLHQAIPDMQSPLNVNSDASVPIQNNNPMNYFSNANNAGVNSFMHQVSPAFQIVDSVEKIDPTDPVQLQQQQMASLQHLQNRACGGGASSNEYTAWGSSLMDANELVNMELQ
- method_summary: protein-binding microarray (RPBM); PBS, 2% BSA, 51.3 ng/ul salmon testes DNA, 50 uM zinc acetate, 200 nM TF, 25 C, 1 h; high values mean tight binding
- run_conditions: protein: recombinant; tags: N-terminal polyhistidine and DsRed monomer fusion (pET32a); chain copies: 2; label: CyDye5-dUTP incorporated in the synthesized complementary strand; 3' TTTTT single-stranded linker to array surface; dsDNA, one strand shown
The full ranking holds about 39,000 sequences; the median of “fluorescence intensity (a.u.)” is about 4,300, and the highest 2% start at about 39,000. The entries come from a sample that favours the highest values as a whole.
# key: entry, value: binding signal

biopolymer_sequence	binding signal
ATCACGTGATTAAAACAGTAATTATCGAGCACGGAAGGAACGGAGTCACCTAGTGCAG	40600 fluorescence intensity (a.u.)
CCGGCGTGGCGACGTCAGTACTCTCTTCTGCTTCATTTCTCGGAGTCACCTAGTGCAG	7490 fluorescence intensity (a.u.)
ATTGAAAAGTTTGGTTCAAATTAAAATTTTAGTAACAAAACGGAGTCACCTAGTGCAG	24300 fluorescence intensity (a.u.)
CGATCGATCGATTGTGAGCACCGAACTCCCTTAATTAGGACGGAGTCACCTAGTGCAG	3390 fluorescence intensity (a.u.)

Query block: Missing value: binding signal, OsSMF1 (Oryza sativa, UniProt Q6ZLB0 1-436), entry TTAGGCCTCTCACAGTGCTCTTAGCTGGACCGGTGCTACACGGAGTCACCTAGTGCAG . Fill in?
Result block: 3920 fluorescence intensity (a.u.)

Query block: Request: CCTCAGGCCGCCTCTCGTGCTGTACACGTAGGATAGCTACCGGAGTCACCTAGTGCAG
Result block: 46200 fluorescence intensity (a.u.)

Query block: Request: AGCTATCATGTAAGCGTCACGTCAATGCGATGCAGGGGCGCGGAGTCACCTAGTGCAG
Result block: 4630 fluorescence intensity (a.u.)

Query block: Request: CGCCGTCGACACGTGGGGCCCCTCCTCCCGCCGCCGCCGCCGGAGTCACCTAGTGCAG
Result block: 9020 fluorescence intensity (a.u.)

Query block: Request: TCACCGGTCTCATCCCCGTCATATGCATCCTTATCTCCAACGGAGTCACCTAGTGCAG
Result block: 4020 fluorescence intensity (a.u.)

###

- target_or_test_system: OsSMF1 (Oryza sativa, UniProt Q6ZLB0 1-436)
- Sequence: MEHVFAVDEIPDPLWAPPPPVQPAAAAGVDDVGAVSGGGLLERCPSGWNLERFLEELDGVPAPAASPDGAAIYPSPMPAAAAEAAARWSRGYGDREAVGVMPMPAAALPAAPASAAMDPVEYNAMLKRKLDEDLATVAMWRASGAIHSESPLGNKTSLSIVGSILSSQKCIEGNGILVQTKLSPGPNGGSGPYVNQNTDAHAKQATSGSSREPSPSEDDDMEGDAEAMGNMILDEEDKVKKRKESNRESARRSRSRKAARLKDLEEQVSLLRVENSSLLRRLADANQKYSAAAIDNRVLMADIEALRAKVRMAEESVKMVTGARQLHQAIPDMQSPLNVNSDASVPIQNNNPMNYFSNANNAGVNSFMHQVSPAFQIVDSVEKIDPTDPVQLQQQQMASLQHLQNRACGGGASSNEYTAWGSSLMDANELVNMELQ
- method_summary: protein-binding microarray (RPBM); PBS, 2% BSA, 51.3 ng/ul salmon testes DNA, 50 uM zinc acetate, 200 nM TF, 25 C, 1 h; high values mean tight binding
- run_conditions: protein: recombinant; tags: N-terminal polyhistidine and DsRed monomer fusion (pET32a); chain copies: 2; label: CyDye5-dUTP incorporated in the synthesized complementary strand; 3' TTTTT single-stranded linker to array surface; dsDNA, one strand shown
Whole data set: some 39,000 sequences, median “fluorescence intensity (a.u.)” near 4,300, cut for the highest 2% near 39,000. The entries come from a sample that favours the highest values as a whole.
measured_quantity: binding signal

biopolymer_sequence	result
AAAAGTAATTTATAAATAAAATTTCTATATACGTGTTCTTCGGAGTCACCTAGTGCAG	3220 fluorescence intensity (a.u.)

Query block: Endpoint output: binding signal of TTACGATATAGTGTGCCAATTGGCACACCTACATTTTAGTCGGAGTCACCTAGTGCAG . Value?
Result block: 45700 fluorescence intensity (a.u.)

Query block: Request: TCCAGTTTCGCGTAGCTGCGTGACAGTTCAATTGAACTCTCGGAGTCACCTAGTGCAG
Result block: 3200 fluorescence intensity (a.u.)

Query block: Request: CAAGGGAGCTGGTAACACTCATCATTTCCGTTCTTCAAATCGGAGTCACCTAGTGCAG
Result block: 3250 fluorescence intensity (a.u.)

###

- target_or_test_system: OsSMF1 (Oryza sativa, UniProt Q6ZLB0 1-436)
- Sequence: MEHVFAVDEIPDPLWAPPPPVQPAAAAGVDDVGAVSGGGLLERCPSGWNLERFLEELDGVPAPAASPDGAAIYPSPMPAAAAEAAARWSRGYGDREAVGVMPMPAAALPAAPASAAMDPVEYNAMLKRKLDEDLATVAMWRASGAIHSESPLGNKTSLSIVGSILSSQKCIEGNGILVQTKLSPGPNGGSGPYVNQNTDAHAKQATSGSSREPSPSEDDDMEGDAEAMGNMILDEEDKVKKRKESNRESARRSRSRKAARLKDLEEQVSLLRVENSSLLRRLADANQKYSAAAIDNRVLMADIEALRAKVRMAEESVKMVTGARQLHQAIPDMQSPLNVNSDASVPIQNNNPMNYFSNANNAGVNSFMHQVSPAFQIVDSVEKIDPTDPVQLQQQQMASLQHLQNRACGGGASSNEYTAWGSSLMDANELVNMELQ
- method_summary: protein-binding microarray (RPBM); PBS, 2% BSA, 51.3 ng/ul salmon testes DNA, 50 uM zinc acetate, 200 nM TF, 25 C, 1 h; high values mean tight binding
- run_conditions: protein: recombinant; tags: N-terminal polyhistidine and DsRed monomer fusion (pET32a); chain copies: 2; label: CyDye5-dUTP incorporated in the synthesized complementary strand; 3' TTTTT single-stranded linker to array surface; dsDNA, one strand shown
Over roughly 39,000 sequences, “fluorescence intensity (a.u.)” has its median near 4,300; the highest 2% begin near 39,000. Only a selection was taken, and the highest values are over-represented in it overall.
measured_quantity: binding signal

Study these solved cases before continuing.
biopolymer_sequence	binding signal
TAACCATGGTCTTGCCTACGTGGCGTGCCACGTAGACGATCGGAGTCACCTAGTGCAG	34300 fluorescence intensity (a.u.)
TTGAACCCCGTGTACATCAACAAACCACGTGTCCATCAAGCGGAGTCACCTAGTGCAG	6220 fluorescence intensity (a.u.)
TCCAAAATATTAGCATGGCACAGATTGGCACTACCCTTGTCGGAGTCACCTAGTGCAG	3280 fluorescence intensity (a.u.)
TCGTCGACTACGTGTTGGTGTTTCATGCCGCCAAGTCGACCGGAGTCACCTAGTGCAG	5250 fluorescence intensity (a.u.)
CTGCAGCAAACGACCAGCCATGTCACAGGTTGTGAAGGTCCGGAGTCACCTAGTGCAG	4600 fluorescence intensity (a.u.)

Field: next sequence
Query block: Endpoint output: binding signal of AGGAAGGAAGGAAGCAAAATGCTGACGTGTACATAAACCGCGGAGTCACCTAGTGCAG . Value?
Result block: 16000 fluorescence intensity (a.u.)

###

- target_or_test_system: OsSMF1 (Oryza sativa, UniProt Q6ZLB0 1-436)
- Sequence: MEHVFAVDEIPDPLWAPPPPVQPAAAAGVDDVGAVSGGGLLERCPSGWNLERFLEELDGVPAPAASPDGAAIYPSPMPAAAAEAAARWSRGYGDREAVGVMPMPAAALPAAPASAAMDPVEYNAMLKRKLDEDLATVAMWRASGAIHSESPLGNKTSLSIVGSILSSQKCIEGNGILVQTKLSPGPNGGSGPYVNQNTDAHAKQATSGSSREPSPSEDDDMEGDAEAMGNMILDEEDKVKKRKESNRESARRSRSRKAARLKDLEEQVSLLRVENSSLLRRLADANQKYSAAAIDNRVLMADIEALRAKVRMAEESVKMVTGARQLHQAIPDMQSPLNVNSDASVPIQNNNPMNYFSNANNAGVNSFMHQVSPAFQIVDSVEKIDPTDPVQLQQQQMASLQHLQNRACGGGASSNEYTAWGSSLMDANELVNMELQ
- method_summary: protein-binding microarray (RPBM); PBS, 2% BSA, 51.3 ng/ul salmon testes DNA, 50 uM zinc acetate, 200 nM TF, 25 C, 1 h; high values mean tight binding
- run_conditions: protein: recombinant; tags: N-terminal polyhistidine and DsRed monomer fusion (pET32a); chain copies: 2; label: CyDye5-dUTP incorporated in the synthesized complementary strand; 3' TTTTT single-stranded linker to array surface; dsDNA, one strand shown
Whole data set: some 39,000 sequences, median “fluorescence intensity (a.u.)” near 4,300, cut for the highest 2% near 39,000. The entries come from a sample that favours the highest values as a whole.
measured_quantity: binding signal

Study these solved cases before continuing.
biopolymer_sequence	binding signal
TGCCCGGCTCGGCTACCCCGTCGCCACCGCCGTTCGTTTCCGGAGTCACCTAGTGCAG	3190 fluorescence intensity (a.u.)
GCTAATTTGACTCGGTTTTCATCTGACGTGGCATTGACGTCGGAGTCACCTAGTGCAG	41400 fluorescence intensity (a.u.)
GTTGACCCGCAGTTCCCCTTTGTTTTCCACGTGTTTCTTCCGGAGTCACCTAGTGCAG	7790 fluorescence intensity (a.u.)
CCACACACTTATGAACACGAGTACAGCCGATGCCCTATAACGGAGTCACCTAGTGCAG	3390 fluorescence intensity (a.u.)

Query block: Endpoint output: binding signal of CGGTTTTAGCTGACGTGGCGCCTACGTGGCAAAGTTGACCCGGAGTCACCTAGTGCAG . Value?
Result block: 44700 fluorescence intensity (a.u.)

Query block: Request: GGACGGTTTCGCTGATGTGGCGCCTACGTGGCATCCTAATCGGAGTCACCTAGTGCAG
Result block: 20300 fluorescence intensity (a.u.)

Query block: Request: GCAGAGGAACCTTGGTAGTAGTATTTGGTTTCTCAGAAGTCGGAGTCACCTAGTGCAG
Result block: 52600 fluorescence intensity (a.u.)

Query block: Request: GCAACATAACCCATCCTAGATTGCTATATATTGGGACGAACGGAGTCACCTAGTGCAG
Result block: 65500 fluorescence intensity (a.u.)

Query block: Request: ACAAGTTGGAGCTACTTTCTTTTGAAATGACAGATCAACTCGGAGTCACCTAGTGCAG
Result block: 3250 fluorescence intensity (a.u.)

Query block: Request: ATAGTGGTTTTGGCTGACGTGGCGCCTACGTGGCTAATTTCGGAGTCACCTAGTGCAG
Result block: 19600 fluorescence intensity (a.u.)

Query block: Request: TTGAATTGCCATTACAAGCAGAAACTGGGTAGCCCAGCAGCGGAGTCACCTAGTGCAG
Result block: 14600 fluorescence intensity (a.u.)

Query block: Request: GTGTTTTGACGCATGCATGCCGTTGGTCATCAGTTAATCACGGAGTCACCTAGTGCAG
Result block: 3480 fluorescence intensity (a.u.)
